Target: MJDCAA/G78 RNA
Assay: Isothermal titration calorimetry binding assay, expanded MJDCAA/G78 RNA
Conditions: ITC; 0.7 mM peptide into 0.5 μM MJDCAA/G78 RNA; mean ± S.E.M.
propertyMeasured: Kd (µM)

substance	assayedTarget	measValue
Ac-DGKSKGIAYIEFK-NH2 [P3V8]	MJDCAA/G78 RNA	2.94

----------
Test: Plasma pharmacokinetic study in SD rat
Settings: Intravenous administration, 3 μmol/kg, SD rats
Protocol: SD rats (180-200 g) were anesthetized with an intraperitoneal injection of ketamine (60 mg/kg) and xylazine (6 mg/kg) and received a minor surgery of cannulation with a polythene tube (0.4 mm i.d., 0.8 mm o.d., Harvard Apparatus, Holliston, Mass., USA) in the left jugular vein. […] Plasma concentration verse time profiles were analyzed by WinNonlin (Pharsight Corporation, Mountain View, Calif., USA, Version 2.1) to obtain the pharmacokinetics parameters. […]
Residues, ends and D or L forms follow the SMILES beside them. *: point of attachment. Palmitoyl = CCCCCCCCCCCCCCCC(=O)*

compound	Cmax [µM]
CCCCCCCCCCCCCCCC(=O)N[C@@H](CC(=O)O)C(=O)NCC(=O)N[C@@H](CCCCN)C(=O)N[C@@H](CO)C(=O)N[C@@H](CCCCN)C(=O)NCC(=O)N[C@H](C(=O)N[C@@H](C)C(=O)N[C@@H](Cc1ccc(O)cc1)C(=O)N[C@H](C(=O)N[C@@H](CCC(=O)O)C(=O)N[C@@H](Cc1ccccc1)C(=O)N[C@@H](CCCCN)C(N)=O)[C@@H](C)CC)[C@@H](C)CC [L1P3V8] (Palmitoyl-DGKSKGIAYIEFK-NH2)	10.4

----------
Listed below: improvement of binding affinity to expanded CAG RNA over P3 values for each entry.
System: MJDCAG78 RNA
Assay: Isothermal titration calorimetry binding assay, expanded MJDCAG78 RNA
Settings: relative to P3
Non-standard residues stand in square brackets, D forms with d. No end group written: not given here.
propertyMeasured: improvement of binding affinity to expanded CAG RNA over P3

substance	assayedTarget	measValue
DGRSRGIAYIEFK [P3V5]	MJDCAG78 RNA	~10 fold
DGKSKGIAYIEWK [P3V4]	MJDCAG78 RNA	~4 fold
DGKSKGIAYIEYK [P3V3]	MJDCAG78 RNA	~2 fold
Asp-(d-Ala)-Lys-Ser-Lys-Gly-Ile-Ala-Tyr-Ile-Glu-Phe-Lys (D[dA]KSKGIAYIEFK) [P3V1]	MJDCAG78 RNA	4 fold

----------
Assay: In vitro stability in rat brain homogenate
Type: in vitro ADME
Details: male, Sprague-Dawley, rat, tissue homogenate, 2000 ng/mL, 37° C., incubation for 3 hr, read-out: Pecentage of remained
Method: Sprague-Dawley (SD) rats (male, 180-200 g) were supplied by the Laboratory Animal Services Centre at The Chinese University of Hong Kong. All animal studies were conducted under the approval of the Animal Ethics Committee of The Chinese University of Hong Kong, and were performed in accordance with relevant guidelines and regulations. […]
Residues, ends and D or L forms follow the SMILES beside them. *: point of attachment. Palmitoyl = CCCCCCCCCCCCCCCC(=O)*

molecule	remaining at 3 h, 2000 ng/mL
CCCCCCCCCCCCCCCC(=O)N[C@@H](CC(=O)O)C(=O)NCC(=O)N[C@@H](CCCCN)C(=O)N[C@@H](CO)C(=O)N[C@@H](CCCCN)C(=O)NCC(=O)N[C@H](C(=O)N[C@@H](C)C(=O)N[C@@H](Cc1ccc(O)cc1)C(=O)N[C@H](C(=O)N[C@@H](CCC(=O)O)C(=O)N[C@@H](Cc1ccccc1)C(=O)N[C@@H](CCCCN)C(N)=O)[C@@H](C)CC)[C@@H](C)CC [L1P3V8] (Palmitoyl-DGKSKGIAYIEFK-NH2)	~21%

----------
Target: MJDCAG78 RNA
Assay: Isothermal titration calorimetry binding assay, expanded MJDCAG78 RNA
Conditions: ITC at 25° C.; 0.7 mM peptide titrated into 0.5 μM MJDCAG78 RNA; one binding site model; mean ± S.E.M.
Non-standard residues stand in square brackets, D forms with d. hArg = N=C(N)NCCCC[C@H](N)C(=O)O; Dap = NC[C@H](N)C(=O)O
propertyMeasured: KD

substance	measValue
Ac-Asp-Gly-Lys-Ser-(hArg)-Gly-Ile-Ala-Tyr-Ile-Glu-Phe-Lys-NH2 (Ac-DGKS[hArg]GIAYIEFK-NH2; SMILES CC[C@H](C)[C@H](NC(=O)CNC(=O)[C@H](CCCCNC(=N)N)NC(=O)[C@H](CO)NC(=O)[C@H](CCCCN)NC(=O)CNC(=O)[C@H](CC(=O)O)NC(C)=O)C(=O)N[C@@H](C)C(=O)N[C@@H](Cc1ccc(O)cc1)C(=O)N[C@H](C(=O)N[C@@H](CCC(=O)O)C(=O)N[C@@H](Cc1ccccc1)C(=O)N[C@@H](CCCCN)C(N)=O)[C@@H](C)CC) [P3V15]	No binding
Ac-Asp-Gly-(Dap)-Ser-Lys-Gly-Ile-Ala-Tyr-Ile-Glu-Phe-Lys-NH2 (Ac-DG[Dap]SKGIAYIEFK-NH2; SMILES CC[C@H](C)[C@H](NC(=O)CNC(=O)[C@H](CCCCN)NC(=O)[C@H](CO)NC(=O)[C@H](CN)NC(=O)CNC(=O)[C@H](CC(=O)O)NC(C)=O)C(=O)N[C@@H](C)C(=O)N[C@@H](Cc1ccc(O)cc1)C(=O)N[C@H](C(=O)N[C@@H](CCC(=O)O)C(=O)N[C@@H](Cc1ccccc1)C(=O)N[C@@H](CCCCN)C(N)=O)[C@@H](C)CC) [P3V18]	No binding

----------
Target: MJDCAG78 RNA
Assay: Isothermal titration calorimetry binding assay, expanded MJDCAG78 RNA
Conditions: ITC at 25° C.; 0.7 mM peptide titrated into 0.5 μM MJDCAG78 RNA; one binding site model; mean ± S.E.M.
Starred links: 1 amine or outer side, 2 acyl side, 3 side chain; linkers in the order of their positions; H or OH if unused. Non-standard residues stand in square brackets, D forms with d. gPNA = guanine base linked to N-(2-aminoethyl)-glycine backbone, Nc1nc2c(ncn2CC(=O)N(CCN[*:1])CC(=O)[*:2])c(=O)[nH]1; tPNA = thymine base linked to N-(2-aminoethyl)-glycine backbone, Cc1cn(CC(=O)N(CCN[*:1])CC(=O)[*:2])c(=O)[nH]c1=O; aPNA = adenine base linked to N-(2-aminoethyl)-glycine backbone, Nc1ncnc2c1ncn2CC(=O)N(CCN[*:1])CC(=O)[*:2]
Kd for assorted substances

substance	outputUnit	Kd
H-cptPNA-**-Lys-Ser-Lys-Gly-Ile-Ala-Tyr-Ile-Glu-Phe-Lys-NH2 (H-XKSKGIAYIEFK-NH2; not fully specified (residue 1); printed as H-cptPNA-**-Lys-Ser-Lys-Gly-Ile-Ala-Tyr-Ile-Glu-Phe-Lys-NH2; also: N-terminal amino group replaced by hydrogen) [P3V27]	µM	11.2
H-aPNA-**-Lys-Ser-Lys-Gly-Ile-Ala-Tyr-Ile-Glu-Phe-Lys-NH2 (H-[aPNA]KSKGIAYIEFK-NH2; not fully specified (residue 1); printed as H-aPNA-**-Lys-Ser-Lys-Gly-Ile-Ala-Tyr-Ile-Glu-Phe-Lys-NH2; also: N-terminal amino group replaced by hydrogen) [P3V25]	µM	8.28
H-Asp-Gly-Lys-Ser-Lys-Gly-Ile-tPNA-*-Ile-Glu-Phe-Lys-NH2 (H-DGKSKGI[tPNA]IEFK-NH2; not fully specified (residue 8); also: Asp N-terminal amino group replaced by hydrogen) [P3V12]	µM	9.93
H-gPNA-**-Lys-Ser-Lys-Gly-Ile-Ala-Tyr-Ile-Glu-Phe-Lys-NH2 (H-[gPNA]KSKGIAYIEFK-NH2; not fully specified (residue 1); printed as H-gPNA-**-Lys-Ser-Lys-Gly-Ile-Ala-Tyr-Ile-Glu-Phe-Lys-NH2; also: N-terminal amino group replaced by hydrogen) [P3V26]	µM	8.85
